Data provenance is paper PMC12416549.

# tgt: T1, TNFR1 (Homo sapiens, UniProt P19438)
# T1 chain: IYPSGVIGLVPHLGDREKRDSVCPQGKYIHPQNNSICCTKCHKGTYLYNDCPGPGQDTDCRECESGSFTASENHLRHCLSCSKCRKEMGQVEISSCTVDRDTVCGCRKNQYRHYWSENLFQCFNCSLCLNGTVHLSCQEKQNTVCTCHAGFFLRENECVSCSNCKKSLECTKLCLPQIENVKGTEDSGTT
# protocol.details: yeast display SC50
observed.property: apparent Kd (screen) (nM)

>>> meas_value("R66G (designed binder) SMEEEVEKAAKEYEKKKKEAIEKHLEKLKAKDKEAAERFLKELEEAAKEYAKDEAKTMSEEEAKRGAKKYKEKVLLSELSEEEQKEIKEAEEKLVRTILKYVEEAAK")
7.07
>>> meas_value("L40R (designed binder) SMEEEVEKAAKEYEKKKKEAIEKHLEKLKAKDKEAAERFRKELEEAAKEYAKDEAKTMSEEEAKRRAKKYKEKVLLSELSEEEQKEIKEAEEKLVRTILKYVEEAAK")
0.49
